Test system: A549 cells
experiment: cells
conditionContext: Homo sapiens, A549, 48 h, read-out: IC50 against A549

- compound: "COC(=O)c1cc(O)c(O)c(O)c1 [Methyl gallate]"
  IC50: "77.2 µg/mL"
- compound: "O=C1O[C@H]([C@@H](O)CO)C(O)=C1O [Ascorbic acid, reference compound]"
  IC50: "6020 µg/mL"
- compound: "C[C@@H]1O[C@@H](OC[C@H]2O[C@@H](Oc3c(-c4ccc(O)c(O)c4)oc4cc(O)cc(O)c4c3=O)[C@H](O)[C@@H](O)[C@@H]2O)[C@H](O)[C@H](O)[C@H]1O [Rutin]"
  IC50: "4180 µg/mL"
- compound: "COC(=O)[C@H]1[C@H]2C[C@@H]3c4[nH]c5cc(OC)ccc5c4CCN3C[C@H]2C[C@@H](OC(=O)c2cc(OC)c(OC)c(OC)c2)[C@@H]1OC [Reserpine, reference compound]"
  IC50: "68.5 µg/mL"

* * *

Test system: A549 cells
experiment: cells
experimentalEndpoint: cytotoxicity against A549 cells

- molecule: "C[C@@H]1O[C@@H](OC[C@H]2O[C@@H](Oc3c(-c4ccc(O)c(O)c4)oc4cc(O)cc(O)c4c3=O)[C@H](O)[C@@H](O)[C@@H]2O)[C@H](O)[C@H](O)[C@H]1O"
  observedValue: "negligible cytotoxicity"
- molecule: "COC(=O)[C@H]1[C@H]2C[C@@H]3c4[nH]c5cc(OC)ccc5c4CCN3C[C@H]2C[C@@H](OC(=O)c2cc(OC)c(OC)c(OC)c2)[C@@H]1OC [Reserpine, reference compound]"
  observedValue: "promissive cytotoxicity"
- molecule: "O=C1O[C@H]([C@@H](O)CO)C(O)=C1O [Ascorbic acid, reference compound]"
  observedValue: "negligible cytotoxicity"
- molecule: "O.Oc1cc(O)c2c(c1)O[C@H](c1ccc(O)c(O)c1)[C@@H](O)C2"
  observedValue: "negligible cytotoxicity"
- molecule: "COC(=O)c1cc(O)c(O)c(O)c1 [Methyl gallate]"
  observedValue: "promissive cytotoxicity"

* * *

Tested on: MCF-7 cells
experiment: cells

- compound: "COC(=O)[C@H]1[C@H]2C[C@@H]3c4[nH]c5cc(OC)ccc5c4CCN3C[C@H]2C[C@@H](OC(=O)c2cc(OC)c(OC)c(OC)c2)[C@@H]1OC [Reserpine, reference compound]"
  cytotoxicity against MCF-7 cells: "promissive cytotoxicity"
- compound: "C[C@@H]1O[C@@H](OC[C@H]2O[C@@H](Oc3c(-c4ccc(O)c(O)c4)oc4cc(O)cc(O)c4c3=O)[C@H](O)[C@@H](O)[C@@H]2O)[C@H](O)[C@H](O)[C@H]1O"
  cytotoxicity against MCF-7 cells: "toxic"
- compound: "O=C1O[C@H]([C@@H](O)CO)C(O)=C1O [Ascorbic acid, reference compound]"
  cytotoxicity against MCF-7 cells: "toxic"
- compound: "O.Oc1cc(O)c2c(c1)O[C@H](c1ccc(O)c(O)c1)[C@@H](O)C2"
  cytotoxicity against MCF-7 cells: "toxic"
- compound: "COC(=O)c1cc(O)c(O)c(O)c1 [Methyl gallate]"
  cytotoxicity against MCF-7 cells: "promissive cytotoxicity"

* * *

Test system: WI-38 cells
experiment: cells
Protocol: Cell viability were analysed using the WST-1 cell proliferation reagent according to the earlier described technique. All cells (1 × 10^4 cells/well) were treated for 48 h with concentrations ranging from 0–200 µg/ml of ETME, ascorbic acid, catechin, tannic acid, reserpine, methyl gallate and rutin. Cell proliferation and viability were measured by measuring absorbance of the coloured product spectrophotometrically at 460 nm using a microplate ELISA reader […] EX (Thermo Electron Corporation, USA). […]

- compound: "O.Oc1cc(O)c2c(c1)O[C@H](c1ccc(O)c(O)c1)[C@@H](O)C2"
  cytotoxicity against WI-38 cells: "negligible cytotoxicity"
- compound: "C[C@@H]1O[C@@H](OC[C@H]2O[C@@H](Oc3c(-c4ccc(O)c(O)c4)oc4cc(O)cc(O)c4c3=O)[C@H](O)[C@@H](O)[C@@H]2O)[C@H](O)[C@H](O)[C@H]1O"
  cytotoxicity against WI-38 cells: "negligible cytotoxicity"
- compound: "O=C1O[C@H]([C@@H](O)CO)C(O)=C1O [Ascorbic acid, reference compound]"
  cytotoxicity against WI-38 cells: "negligible cytotoxicity"
- compound: "COC(=O)c1cc(O)c(O)c(O)c1 [Methyl gallate]"
  cytotoxicity against WI-38 cells: "promissive cytotoxicity"
- compound: "COC(=O)[C@H]1[C@H]2C[C@@H]3c4[nH]c5cc(OC)ccc5c4CCN3C[C@H]2C[C@@H](OC(=O)c2cc(OC)c(OC)c(OC)c2)[C@@H]1OC [Reserpine, reference compound]"
  cytotoxicity against WI-38 cells: "promissive cytotoxicity"
